# measuredTarget: T1, cynomolgus monkey CD137 (cynomolgus monkey, UniProt Q07011 24-186 (human entry), limits assumed)
# T1 construct: Soluble analyte in the Biacore assay; also called cyno CD137
# T1 chain: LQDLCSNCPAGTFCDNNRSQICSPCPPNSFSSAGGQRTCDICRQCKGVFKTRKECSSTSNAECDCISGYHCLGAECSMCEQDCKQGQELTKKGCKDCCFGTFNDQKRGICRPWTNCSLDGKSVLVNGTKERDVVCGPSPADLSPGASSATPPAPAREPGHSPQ
# experimentDescription: SPR Biacore T200, IgG captured on protein A, antigen as analyte, 25 C;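 note: antigens flowed over a CM3 chip for 120 s association, KD derived from ka and kd, running buffer (ACES, NaCl, Tween20, pH 7.4) served as blank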
pKd: −log10 of the molar value.
Lab note: compare pKd against 4. Equal or greater, write True. Smaller, write False.

• dBBDu_193 / dBBDu.L127 (antibody, human IgG1, V domains shown, Tested as IgG (human IgG1 constant region, kappa light chain); also called dBBDu193/L127; dBBDu_193/L127) VH: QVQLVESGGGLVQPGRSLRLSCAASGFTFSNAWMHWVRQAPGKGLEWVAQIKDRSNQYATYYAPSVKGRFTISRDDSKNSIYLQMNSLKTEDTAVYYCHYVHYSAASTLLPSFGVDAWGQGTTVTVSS VL: DIVMTQSPLSLPVTPGEPASISCRASEELLHINRHIFLHWYQQKPGQAPRLLIYKVYNRFTGVPDRFSGSGSGTDFTLKISRVEAEDVGVYYCAQGTSVPFTFGQGTKLEIK = True
• dBBDu_189 / dBBDu_L119 (antibody, human IgG1, V domains shown, Tested as IgG (human IgG1 constant region, kappa light chain); also called dBBDu189/L119) VH: QVQLVESGGGLVQPGRSLRLSCAASGFTFSNAWMHWVRQAPGKGLEWIAQIKDRSNQYATYYAPSVKGRFTISRDDSKNSIYLQMNSLKTEDTAVYYCHYVHYAQASSLLPSFGVDAWGQGTTVTVSS VL: DIVMTQSPLSLPVTPGEPASISCTASQELVHINRFIFLHWYQQKPGQAPRLLIYKVSNRFIGVPDRFSGSGSGTDFTLKISRVEAEDVGVYYCAQGSQVPFTFGQGTKLEIK = True
• dBBDu_167 / dBBDu_L091 (antibody, human IgG1, V domains shown, Tested as IgG (human IgG1 constant region, kappa light chain); also called dBBDu167/L091) VH: QVQLVESGGGLVQPGRSLRLSCAASGFTFSNAWMHWVRQAPGKGLEWVAQIKDKGNLYAAYYAPSVKGRFTISRDDSKNSIYLQMNSLKTEDTAVYYCHYVHYASAGGGLPGFGVDAWGQGTTVTVSS VL: DIVMTQSPLSLPVTPGEPASISCSASESLLHNNRHTYLHWYQQKPGQAPRLLIYRVSNRFNGVPDRFSGSGSGTDFTLKISRVEAEDVGVYYCGQGTQVPFTFGQGTKLEIK = True
• dBBDu_189 / dBBDu_L126 (antibody, human IgG1, V domains shown, Tested as IgG (human IgG1 constant region, kappa light chain); also called dBBDu189/L126) VH: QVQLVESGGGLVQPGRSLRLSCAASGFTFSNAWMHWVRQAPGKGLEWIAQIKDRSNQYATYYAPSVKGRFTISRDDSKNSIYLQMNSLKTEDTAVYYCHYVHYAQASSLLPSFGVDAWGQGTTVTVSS VL: DIVMTQSPLSLPVTPGEPASISCRTSEELLHINRYIFLHWYQQKPGQAPRLLIYKVQNRFSGVPDRFSGSGSGTDFTLKISRVEAEDVGVYYCAQGSAVPFTFGQGTKLEIK = True
• dBBDu_183 / dBBDu_L063 (antibody, V domains shown, Tested as IgG (Fab genes converted into IgG format, human IgG1 constant region, kappa light chain); also called dBBDu183/L063; dBBDu_183/L063) VH: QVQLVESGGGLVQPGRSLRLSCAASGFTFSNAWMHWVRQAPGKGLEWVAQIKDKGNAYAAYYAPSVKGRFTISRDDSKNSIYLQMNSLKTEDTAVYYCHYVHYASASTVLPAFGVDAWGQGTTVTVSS VL: DIVMTQSPLSLPVTPGEPASISCRSSQELVHTNRHTYLHWYQQKPGQAPRLLIYKVSNRFPGVPDRFSGSGSGTDFTLKISRVEAEDVGVYYCAQGTQVPFTFGQGTKLEIK = True
• dBBDu_183 / dBBDu_L067 (antibody, human IgG1, V domains shown, Tested as IgG (human IgG1 constant region, kappa light chain); also called dBBDu183/L067) VH: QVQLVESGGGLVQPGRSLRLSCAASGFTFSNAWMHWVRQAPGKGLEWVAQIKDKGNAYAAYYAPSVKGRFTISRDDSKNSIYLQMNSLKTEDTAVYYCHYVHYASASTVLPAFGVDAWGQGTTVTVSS VL: DIVMTQSPLSLPVTPGEPASISCQSSESLVHVNRHTYLHWYQQKPGQAPRLLIYKVYNRFPGVPDRFSGSGSGTDFTLKISRVEAEDVGVYYCAQGTSVPFTFGQGTKLEIK = True
• dBBDu_186 / dBBDu_L106 (antibody, human IgG1, V domains shown, Tested as IgG (human IgG1 constant region, kappa light chain); also called dBBDu186/L106) VH: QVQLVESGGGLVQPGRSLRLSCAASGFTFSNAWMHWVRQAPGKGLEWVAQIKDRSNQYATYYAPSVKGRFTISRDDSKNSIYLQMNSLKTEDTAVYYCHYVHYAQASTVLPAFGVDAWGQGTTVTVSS VL: DIVMTQSPLSLPVTPGEPASISCSTSEELLHINRFIFLHWYQQKPGQAPRLLIYKVANRFMGVPDRFSGSGSGTDFTLKISRVEAEDVGVYYCAQGSQVPFTFGQGTKLEIK = True
• dBBDu_186 / dBBDu_L098 (antibody, human IgG1, V domains shown, Tested as IgG (human IgG1 constant region, kappa light chain); also called dBBDu186/L098) VH: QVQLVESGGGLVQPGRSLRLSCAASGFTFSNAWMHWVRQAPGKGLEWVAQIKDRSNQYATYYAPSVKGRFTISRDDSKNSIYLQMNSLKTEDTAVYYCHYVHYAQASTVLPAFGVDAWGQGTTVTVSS VL: DIVMTQSPLSLPVTPGEPASISCAASEELVHINRYIFLHWYQQKPGQAPRLLIYKVSNRFIGVPDRFSGSGSGTDFTLKISRVEAEDVGVYYCAQGSQVPFTFGQGTKLEIK = False
• dBBDu_193 / dBBDu.L132 (antibody, human IgG1, V domains shown, Tested as IgG (human IgG1 constant region, kappa light chain); also called dBBDu193/L132; dBBDu_193/L132) VH: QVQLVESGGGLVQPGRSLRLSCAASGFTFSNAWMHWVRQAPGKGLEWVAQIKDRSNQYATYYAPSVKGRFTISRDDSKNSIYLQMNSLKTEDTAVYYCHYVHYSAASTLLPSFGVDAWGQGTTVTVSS VL: DIVMTQSPLSLPVTPGEPASISCQTSEELVHINRFIFLHWYQQKPGQAPRLLIYKVSNRFSGVPDRFSGSGSGTDFTLKISRVEAEDVGVYYCAQGTSVPFTFGQGTKLEIK = False
• dBBDu_186 / dBBDu_L096 (antibody, human IgG1, V domains shown, Tested as IgG (human IgG1 constant region, kappa light chain); also called dBBDu186/L096) VH: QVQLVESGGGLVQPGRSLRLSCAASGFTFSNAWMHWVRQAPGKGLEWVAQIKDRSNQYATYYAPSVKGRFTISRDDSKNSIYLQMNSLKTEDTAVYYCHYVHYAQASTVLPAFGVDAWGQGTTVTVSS VL: DIVMTQSPLSLPVTPGEPASISCRTSQELVHINRYIFLHWYQQKPGQAPRLLIYKVYNRFQGVPDRFSGSGSGTDFTLKISRVEAEDVGVYYCAQGTSVPYTFGQGTKLEIK = False
